- Test system: PDC KRAS tumor spheroids with HUVEC/MSC, viability
- method-description: Anticancer human tumor 349418-098-R-PDC patient-derived lung adenocarcinoma cell line growth inhibition [KRAS2]; active = viability on the fitted dose curve at most 10% of control; inactive = the rest
- experimental-setup: second compound 3.16 µM; first compound 0.1 µM
- Text: Multicellular complex tumor spheroid response to RAS pathway inhibitors in combination with a targeted agents in patient-derived cell lines with oncogenic KRAS variants from multiple cancer types A high-throughput screen of multi-cell type tumor spheroids was designed to identify active combinations of targeted small molecules and KRAS pathway inhibitors. […] Compounds. […] If the clinical Cmax for an agent had not been determined, the highest concentration tested was 10 microM. […]
Write down one outcome, taken from yes (1) for active, no (0) for inactive

The following compounds have reported results that may help.
CC1(C)CCC(CN2CCN(c3ccc(C(=O)NS(=O)(=O)c4ccc(NCC5CCOCC5)c([N+](=O)[O-])c4)c(Oc4cnc5[nH]ccc5c4)c3)CC2)=C(c2ccc(Cl)cc2)C1 + CNCc1ccccc1-c1csc(C(C)Nc2nc(C)nc3cc(OC)c(OC)cc23)c1    yes (1)
CC1OCC2(CCN(c3cnc(Sc4ccnc(N)c4Cl)c(N)n3)CC2)C1N (stereo unspecified) + COc1cc2nc(C)nc(NC(C)c3cc(N)cc(C(F)(F)F)c3)c2cc1OC1CCOC1    no (0)
CCN1CCN(Cc2ccc(Nc3ncc(F)c(-c4cc(F)c5nc(C)n(C(C)C)c5c4)n3)nc2)CC1 + CNCc1ccccc1-c1csc(C(C)Nc2nc(C)nc3cc(OC)c(OC)cc23)c1    yes (1)
O=C(c1cc(Cc2n[nH]c(=O)c3ccccc23)ccc1F)N1CCN(C(=O)C2CC2)CC1 + CC1OCC2(CCN(c3cnc(Sc4ccnc(N)c4Cl)c(N)n3)CC2)C1N    no (0)
CC1OCC2(CCN(c3cnc(Sc4ccnc(N)c4Cl)c(N)n3)CC2)C1N (stereo unspecified) + C=CC(=O)N1CCN(c2nc(=O)n(-c3c(C)ccnc3C(C)C)c3nc(-c4c(O)cccc4F)c(F)cc23)C(C)C1    no (0)

Then there is this compound:
Which outcome did this test record for the compound CC(C)n1nc(-c2ccc3oc(N)nc3c2)c2c(N)ncnc21 + C=CC(=O)N1CCN(c2nc(=O)n(-c3c(C)ccnc3C(C)C)c3nc(-c4c(O)cccc4F)c(F)cc23)C(C)C1 ? yes (1)

---

- Tested on: PDC KRAS tumor spheroids with HUVEC/MSC, viability
- method-description: Anticancer human tumor 349418-098-R-PDC cell line growth inhibition [KRAS2];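 also: spheroids exposed to compounds for seven days before readout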
- experimental-setup: curve of first compound; second compound 10 µM
pIC50: −log10 of the molar value.
Measured pIC50, listed per entry for reference.

For orientation, consider the following solved cases.
CC(=O)OC12COC1CC(O)C1(C)C(=O)C(O)C3=C(C)C(OC(=O)C(O)C(NC(=O)OC(C)(C)C)c4ccccc4)CC(O)(C(OC(=O)c4ccccc4)C21)C3(C)C (stereo unspecified) + CC1OCC2(CCN(c3cnc(Sc4ccnc(N)c4Cl)c(N)n3)CC2)C1N    > 8.00
CN(C)C/C=C/C(=O)Nc1cc2c(Nc3ccc(F)c(Cl)c3)ncnc2cc1O[C@H]1CCOC1 + CC1OCC2(CCN(c3cnc(Sc4ccnc(N)c4Cl)c(N)n3)CC2)C1N    < 7.00
O=C(c1cc(Cc2n[nH]c(=O)c3ccccc23)ccc1F)N1CCN(C(=O)C2CC2)CC1 + CNCc1ccccc1-c1csc(C(C)Nc2nc(C)nc3cc(OC)c(OC)cc23)c1    > 7.50
Cn1nccc1Nc1nccc(-c2cc3c(s2)C(C)(C)N(CCN2CCOCC2)C3=O)n1 + CC1OCC2(CCN(c3cnc(Sc4ccnc(N)c4Cl)c(N)n3)CC2)C1N    > 7.50
Cn1nccc1Nc1nccc(-c2cc3c(s2)C(C)(C)N(CCN2CCOCC2)C3=O)n1 + COc1cc2nc(C)nc(NC(C)c3cc(N)cc(C(F)(F)F)c3)c2cc1OC1CCOC1    > 7.50

Request the reported pIC50 associated with CC1COCCN1c1cc(-c2ccnn2C)c2ccnc(-c3ccn[nH]3)c2n1 (stereo unspecified) + CNCc1ccccc1-c1csc(C(C)Nc2nc(C)nc3cc(OC)c(OC)cc23)c1 > 8.00
